Biological target: Delta-type opioid receptor (Homo sapiens, UniProt P41143)
Sequence (P41143 whole entry): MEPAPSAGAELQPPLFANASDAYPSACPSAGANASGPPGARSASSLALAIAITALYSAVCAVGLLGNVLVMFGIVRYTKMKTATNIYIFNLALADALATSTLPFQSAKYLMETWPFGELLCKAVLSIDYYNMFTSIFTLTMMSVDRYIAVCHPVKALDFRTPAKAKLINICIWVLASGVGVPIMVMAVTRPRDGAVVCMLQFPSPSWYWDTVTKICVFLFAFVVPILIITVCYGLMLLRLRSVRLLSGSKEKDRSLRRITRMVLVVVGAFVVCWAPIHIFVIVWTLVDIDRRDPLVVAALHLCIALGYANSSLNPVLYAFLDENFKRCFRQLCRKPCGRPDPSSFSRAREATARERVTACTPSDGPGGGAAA
Experiment: Antagonist activity at human cloned delta opioid receptor expressed in CHO cells assessed as inhibition of DPDPE-stimulated [35S]GTP-gamma-S binding in presence of 10 uM GDP
Assay type: functional, cell-based
Ke listing for selected compounds.
Just the number in nM, nothing appended.

Examples with answers:
CCC(CC)(C(=O)N[C@@H]1C[C@@H]2C[C@](c3cccc(O)c3)(C1)[C@@H](C)CN2CCCc1ccccc1)c1ccccc1 = 0.2
C[C@H]1CN(CCCc2ccccc2)[C@@H]2C[C@@H](NC(=O)C(C)(C)c3ccccc3)C[C@@]1(c1cccc(O)c1)C2 = 0.1
C[C@H]1CN(CCCc2ccccc2)[C@@H]2C[C@@H](NC(=O)C3(c4ccc5ccccc5c4)CCCC3)C[C@@]1(c1cccc(O)c1)C2 = 0.75
C[C@H]1CN(C)[C@@H]2C[C@@H](NC(=O)C3(c4ccccc4)CCCC3)C[C@@]1(c1cccc(O)c1)C2 = 76.8

Exercise: # Ke lookup, item C[C@H]1CN(CCCc2ccccc2)[C@@H]2C[C@@H](NC(=O)C3(c4ccc(F)cc4)CCCC3)C[C@@]1(c1cccc(O)c1)C2
Solution: 0.26

Exercise: # Ke lookup, item C[C@H]1CN(CCOc2ccccc2)[C@@H]2C[C@@H](NC(=O)C(C)(C)c3ccccc3)C[C@@]1(c1cccc(O)c1)C2
Solution: 0.87

Exercise: # Ke lookup, item Cc1ccccc1/C=C/CN1C[C@H](C)[C@@]2(c3cccc(O)c3)C[C@H](NC(=O)C3(c4ccccc4)CCCC3)C[C@@H]1C2
Solution: 0.33
